Below, each entry is listed alongside its reported response of 2nd mAb.
Target: T1, ZIKV-VLP (Native Antigen Inc.) (Zika virus)
T1 construct: also called Zika VLP; ZVLP
Assay: BLI binning on ZIKV-VLP; 1st mAb: 181-4

binder: anti-ZIKV antibody 11-3 (antibody, V domains shown, also called clone 11-3) VH: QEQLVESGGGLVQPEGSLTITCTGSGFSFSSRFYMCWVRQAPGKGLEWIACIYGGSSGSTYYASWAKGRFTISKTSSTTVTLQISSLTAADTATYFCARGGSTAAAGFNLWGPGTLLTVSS VL: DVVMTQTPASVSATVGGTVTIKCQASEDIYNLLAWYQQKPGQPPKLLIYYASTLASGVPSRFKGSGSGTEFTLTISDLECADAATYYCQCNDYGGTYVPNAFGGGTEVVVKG
response of 2nd mAb: 0.39
//
binder: anti-ZIKV antibody 242-3 (antibody, V domains shown, also called clone 242-3) VH: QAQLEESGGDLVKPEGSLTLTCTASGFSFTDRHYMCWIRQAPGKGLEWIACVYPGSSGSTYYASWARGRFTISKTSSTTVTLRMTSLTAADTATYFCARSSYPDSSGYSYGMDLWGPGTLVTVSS VL: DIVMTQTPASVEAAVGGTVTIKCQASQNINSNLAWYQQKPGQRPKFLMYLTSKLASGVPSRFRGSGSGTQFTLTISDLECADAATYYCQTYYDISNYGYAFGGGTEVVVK
response of 2nd mAb: 0.02
//
binder: anti-ZIKV antibody 270-12 (antibody, V domains shown, also called clone 270-12) VH: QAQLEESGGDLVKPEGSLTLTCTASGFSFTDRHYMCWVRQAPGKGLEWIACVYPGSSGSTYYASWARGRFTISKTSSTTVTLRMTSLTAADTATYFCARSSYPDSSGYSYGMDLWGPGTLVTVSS VL: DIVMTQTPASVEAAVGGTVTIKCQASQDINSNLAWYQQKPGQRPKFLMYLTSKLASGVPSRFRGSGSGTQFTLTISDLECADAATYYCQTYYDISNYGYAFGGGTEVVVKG
response of 2nd mAb: 0.01
//
binder: anti-ZIKV antibody 289-3 (antibody, V domains shown, also called clone 289-3; subclone 289-3) VH: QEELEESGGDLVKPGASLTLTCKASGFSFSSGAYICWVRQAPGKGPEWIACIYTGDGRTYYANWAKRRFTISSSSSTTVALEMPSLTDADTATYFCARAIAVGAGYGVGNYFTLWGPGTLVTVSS VL: DIVMTQTPSSVSAAVGGTVTINCHASENIYGYLSWYQQKPGQPPKLLIYKASTLASGVPSRFKGSGAGTQFTLTITALECADAATYYCQSYYTSSSNADGSENAFGGGTEVVVEG
response of 2nd mAb: 0.01
//
binder: anti-ZIKV antibody 78-2 (antibody, V domains shown, also called clone 78-2) VH: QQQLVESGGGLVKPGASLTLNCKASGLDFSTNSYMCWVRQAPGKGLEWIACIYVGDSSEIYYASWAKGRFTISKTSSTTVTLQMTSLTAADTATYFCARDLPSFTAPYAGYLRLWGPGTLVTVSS VL: QPVLTQPPSLSASLGTTARLTCTLRTGYNVGDYPLLWLQRVPGRPPRYLLTYHTEEFKHQGSGVHSRFSGSKDASENAGVLSISGLQPEDEANYYCYTVHATESSLHYVFGGGTQLTVTG
response of 2nd mAb: 0.3
//
binder: anti-ZIKV antibody 306-2 (antibody, V domains shown) VH: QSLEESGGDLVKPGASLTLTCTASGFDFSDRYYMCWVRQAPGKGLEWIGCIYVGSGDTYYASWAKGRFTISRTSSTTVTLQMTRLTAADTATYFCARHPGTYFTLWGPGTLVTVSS VL: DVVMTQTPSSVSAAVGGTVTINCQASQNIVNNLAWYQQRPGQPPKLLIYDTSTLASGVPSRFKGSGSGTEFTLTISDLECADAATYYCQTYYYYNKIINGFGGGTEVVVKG
response of 2nd mAb: -0.02

The measurements presented in this section are drawn from patent US20220332800A1.
